Molecular target: T1, human α-CGRP 1-37 (WT) (human, C-terminal amide; N-terminal biotin when captured on the SA chip; 125I-labelled in the radioligand assay)
T1 construct: also called α-human
T1 peptide: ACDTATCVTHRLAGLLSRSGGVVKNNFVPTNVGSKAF
Experiment: Biacore, 37°C, Fab over CGRP on SA chip
Binary label based on Kd with cut-off 2 nM: below gives 1, not below gives -1.

Illustrative cases are given below, each with its answer.
binder	group
G1 variant M37 Fab (Fab, V domains shown, Fab; constant domains as m1) VH: EVQLVESGGGLVQPGGSLRLSCAASGFTFSNYWISWVRQAPGKGLEWVAEIRSESDGSATHYAEAVKGRFTISRDNAKNSLYLQMNSLRAEDTAVYYCTVYFDYGLAIQNYWGQGTLVTVSS VL: EIVLTQSPATLSLSPGERATLSCKASKNVSTYVSWYQQKPGQAPRLLIYGASNRYLGIPARFSGSGSGTDFTLTISSLEPEDFAVYYCSQSYNYPYTFGQGTKLEIK	1
G1 variant M57 Fab (Fab, V domains shown, Fab; constant domains as m1) VH: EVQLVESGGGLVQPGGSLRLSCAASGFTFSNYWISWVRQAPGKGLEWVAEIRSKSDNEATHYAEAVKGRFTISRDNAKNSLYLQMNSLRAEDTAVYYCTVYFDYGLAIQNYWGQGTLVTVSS VL: EIVLTQSPATLSLSPGERATLSCKASKNVDTYVSWYQQKPGQAPRLLIYGASNRYSGIPARFSGSGSGTDFTLTISSLEPEDFAVYYCSQSYNYPYTFGQGTKLEIK	-1
G1 variant M36 Fab (Fab, V domains shown, Fab; constant domains as m1) VH: EVQLVESGGGLVQPGGSLRLSCAASGFTFSNYWISWVRQAPGKGLEWVAEIRSESDASATHYAEAVKGRFTISRDNAKNSLYLQMNSLRAEDTAVYYCTVYFDYGLAIQNYWGQGTLVTVSS VL: EIVLTQSPATLSLSPGERATLSCKASKNVRTYVSWYQQKPGQAPRLLIYGASNRYLGIPARFSGSGSGTDFTLTISSLEPEDFAVYYCSQSYNYPYTFGQGTKLEIK	1

Determine whether this binder shows Kd lower than 2 nM (ties excluded): G1 variant M35 Fab (Fab, V domains shown, Fab; constant domains as m1) VH: EVQLVESGGGLVQPGGSLRLSCAASGFTFSNYWISWVRQAPGKGLEWVAEIRSKSDSSATHYAEAVKGRFTISRDNAKNSLYLQMNSLRAEDTAVYYCTVYFDYGLAIQNYWGQGTLVTVSS VL: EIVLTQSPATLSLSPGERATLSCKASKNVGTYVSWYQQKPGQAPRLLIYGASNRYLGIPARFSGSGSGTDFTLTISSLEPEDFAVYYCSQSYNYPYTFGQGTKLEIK
-1

Ok, now G1 variant M84 Fab (Fab, V domains shown, Fab; constant domains as m1) VH: EVQLVESGGGLVQPGGSLRLSCAASGFTFSNYWISWVRQAPGKGLEWVAEIRSNSDNSATHYAEAVKGRFTISRDNAKNSLYLQMNSLRAEDTAVYYCTVYFDYGLAIQNYWGQGTLVTVSS VL: EIVLTQSPATLSLSPGERATLSCKASKNVVTYVSWYQQKPGQAPRLLIYGHSNRYTGIPARFSGSGSGTDFTLTISSLEPEDFAVYYCSQSYNYPYTFGQGTKLEIK
-1

# credit: patent US20190071490A1
